- Test system: Escherichia coli
- Experimental details: Antimicrobial activity against Escherichia coli O6 using in brain heart infusion medium(dil) after 2 hrs at 10 ug/ml
- Format: functional
Parameter: Activity

substance=H-ATKCFQWQRNMRKVR-OH parameter=Activity recorded_value=>=99%
substance=H-TKCFQWQRNMRKVR-OH parameter=Activity recorded_value=>=99%
substance=H-PEATKCFQWQRNMRKVR-OH parameter=Activity recorded_value=<99%
substance=H-QWQRNMRKVR-OH parameter=Activity recorded_value=<99%
substance=H-FQWQRNMRKVR-OH parameter=Activity recorded_value=<99%

Reported Activity for H-QPEATKCFQWQRNMRKVR-OH was <99%

Noted for H-KCFQWQRNMRKVR-OH : its Activity reads >=99%

Activity measured on H-CFQWQRNMRKVR-OH = >=99%

Noted for H-EATKCFQWQRNMRKVR-OH : its Activity reads >=99%

###

- Experimental details: Antimicrobial activity against Escherichia coli O6 K5 incubation in bactopeptone
- Type: functional
Parameter: MIC99 (µg/mL)
Write it as a number; the unit µg/mL goes unstated.

// known answers, use as guide
substance=H-CFQWQRAMRKVR-OH recorded_value=25
substance=H-CFQWARNMRKVR-OH recorded_value=50
substance=H-CFALKKAMKKVR-OH recorded_value=25
substance=H-CFQWQRNARKVR-OH recorded_value=50

Notebook: H-CFAWQRAMRKVR-OH , MIC99 read as 25

For this substance ( H-CFQWQRNMRKAR-OH ), measured MIC99 is 50

###

- Experimental details: Antimicrobial activity against Escherichia coli O6 K5 incubated in diluted brain heart infusion medium
- Format: functional
Entries and their MIC99 values follow.
Respond with the bare value in mg/L.

Answered cases to consult:
substance=H-CFQWQANMRKVR-OH parameter=MIC99 recorded_value=12
substance=H-CFQWQRNMRAVR-OH parameter=MIC99 recorded_value=12
substance=H-CFQWQRNMAKVR-OH parameter=MIC99 recorded_value=25
substance=H-CFAWQRNMRKVR-OH parameter=MIC99 recorded_value=6
substance=H-CAQWQRNMRKVR-OH parameter=MIC99 recorded_value=12

Quick note, MIC99 for H-CFQAQRNMRKVR-OH landed at 25

###

- Experimental details: Antimicrobial activity against Escherichia coli O6 K5 incubation in bactopeptone
- Assay type: functional
Entries and their MIC99 values follow.
I only need the number, in µg/mL, no unit after it.

Short answer for H-CFQWKRAMRKVR-OH : MIC99 was 12

The substance listed as H-CFQWKRNMRKVR-OH has a reported MIC99 of 25

// H-CFQWQRNMRAVR-OH : MIC99 value = 100

Lab book: MIC99 of H-CFQWQRNMRKVR-OH noted as 100

The recorded MIC99 for H-CFAWQRNMRKVR-OH is 50

response.value for H-CFAWKRNMRKVR-OH (field: MIC99) = 50

###

Examples of substances with documented MIC99 follow.
- Test system: Staphylococcus aureus
- Experimental details: Antimicrobial activity against methicillin resistant Staphylococcus aureus MRS3525 incubated in diluted brain heart infusion medium
- Format: functional
Could you give me the number in µg/mL? Just the number is fine.

Take a look at these entries with their results.
substance=H-CFQWARNMRKVR-OH tgt="Staphylococcus aureus" parameter=MIC99 recorded_value=3.5
substance=H-CFQWQRNMRKVA-OH tgt="Staphylococcus aureus" parameter=MIC99 recorded_value=7

Let us move to another entry and its MIC99.
Entry H-AFQWQRNMRKVR-OH , MIC99 reported as 14
